Test system: LNCaP tumor-bearing CB17-SCID mice
EXPERIMENT: Biodistribution studies 24 h p.i.
Assay type: in vivo
CONDITION DESCRIPTION: 177Lu-labelled, mean±SD, n=4-5
Values of biodistribution: muscle strictly less than 0.006 % ID/g map to met, and values of at least 0.006 % ID/g map to not met.

compound="CC(C)(C)[Si](O)(c1ccc(C(=O)NC[C@@H](NC(=O)CC[C@@H](C(=O)O)N2CCN(CC(=O)O)CCN(CC(=O)O)CCN(CC(=O)O)CC2)C(=O)NCC(=O)N[C@@H](CCCCNC(=O)CCC(=O)NCCC[C@@H](NC(=O)CC[C@H](NC(=O)N[C@@H](CCC(=O)O)C(=O)O)C(=O)O)C(=O)O)C(=O)O)cc1)C(C)(C)C [E102-SiOH]" assigned_label=met
compound="CC(C)(C)[Si](O)(c1ccc(C(=O)N[C@H](CCC(=O)NC[C@@H](NC(=O)CC[C@@H](C(=O)O)N2CCN(CC(=O)O)CCN(CC(=O)O)CCN(CC(=O)O)CC2)C(=O)NCCCCCC(=O)NCCC[C@@H](NC(=O)CC[C@H](NC(=O)N[C@@H](CCC(=O)O)C(=O)O)C(=O)O)C(=O)O)C(=O)O)cc1)C(C)(C)C [P105-SiOH]" assigned_label=met
compound="O=C(O)CC[C@H](NC(=O)N[C@@H](CCCCNC(=O)[C@H](Cc1ccc2ccccc2c1)NC(=O)[C@H]1CC[C@H](CNC(=O)CN2CCN(CC(=O)O)CCN(CC(=O)O)CCN(CC(=O)O)CC2)CC1)C(=O)O)C(=O)O [PSMA-617, reference compound]" assigned_label="not met"
compound="O=C(O)CC[C@H](NC(=O)N[C@@H](CCCCNC(=O)CCCCCCC(=O)NCCCC[C@@H](NC(=O)[C@@H](Cc1ccccc1)NC(=O)[C@@H](Cc1ccc(O)c(I)c1)NC(=O)CCC(C(=O)O)N1CCN(CC(=O)O)CCN(CC(=O)O)CCN(CC(=O)O)CC1)C(=O)O)C(=O)O)C(=O)O (some centres unmarked) [PSMA I&T, reference compound]" assigned_label="not met"
compound="CC(C)(C)[Si](F)(c1ccc(C(=O)NC[C@@H](NC(=O)CN2CCN(CC(=O)O)CCN(CC(=O)O)CCN(CC(=O)O)CC2)C(=O)N[C@H](CCCCNC(=O)CCC(=O)NCCC[C@@H](NC(=O)CC[C@H](NC(=O)N[C@@H](CCC(=O)O)C(=O)O)C(=O)O)C(=O)O)C(=O)O)cc1)C(C)(C)C [rhPSMA-10, reference compound]" assigned_label="not met"
compound="CC(C)(C)[Si](O)(c1ccc(C(=O)NC[C@@H](NC(=O)CC[C@@H](C(=O)O)N2CCN(CC(=O)O)CCN(CC(=O)O)CCN(CC(=O)O)CC2)C(=O)N[C@H](CO)C(=O)NCCC(=O)NCCC(=O)NCCC[C@@H](NC(=O)CC[C@H](NC(=O)N[C@@H](CCC(=O)O)C(=O)O)C(=O)O)C(=O)O)cc1)C(C)(C)C [C007-SiOH]" assigned_label=met
compound="CC(C)(C)[Si](F)(c1ccc(C(=O)NC[C@@H](NC(=O)CC[C@@H](C(=O)O)N2CCN(CC(=O)O)CCN(CC(=O)O)CCN(CC(=O)O)CC2)C(=O)N[C@H](CCCCNC(=O)CCC(=O)NCCC[C@@H](NC(=O)CC[C@H](NC(=O)N[C@@H](CCC(=O)O)C(=O)O)C(=O)O)C(=O)O)C(=O)O)cc1)C(C)(C)C [rhPSMA-7.3, reference compound]" assigned_label="not met"
